- System: NCI-H460 lung
- assay: NCI tumour cell line growth inhibition, 48 h
Listed here: items and their measured TGI.

Past entries and their recorded results:
[
  {
    "compound": "O=C1c2ccccc2C(=O)N1CCSCC(CO)SCCN1C(=O)c2ccccc2C1=O (stereo unspecified)",
    "TGI": "> 100 µM"
  },
  {
    "compound": "COc1cc(-c2nc3ccc(N4CCN(C)CC4)cc3[nH]2)c(OC)c2[nH]c(COC(C)=O)nc12",
    "TGI": "> 100 µM"
  },
  {
    "compound": "Nc1ccc2[nH]c(-c3cccc(C(F)(F)F)c3)cc(=O)c2c1",
    "TGI": "> 100 µM"
  },
  {
    "compound": "CCOC(=O)c1cc(-n2nnc3ccccc32)cn1C",
    "TGI": "> 10 µM"
  },
  {
    "compound": "COc1ccc(C#Cc2ccc(=O)oc2-c2cc(OC)c(OC)c(OC)c2)cc1O",
    "TGI": "> 100 µM"
  }
]

Hey, NCI-H460 lung data for `Cc1nc2c(c(N3CCCc4ccccc43)n1)CCC2` : TGI came out at > 100 µM

Hey, NCI-H460 lung data for `CCOC(=O)NN(C(=O)OCC)C(C(=O)C1=CCCCC1)N(NC(=O)OCC)C(=O)OCC` : TGI came out at > 100 µM

Hey, NCI-H460 lung data for `COc1cc(OC)cc(-c2ccc(-c3ccc(C(=N)N)cn3)o2)c1` : TGI came out at 3.16 µM

Hey, NCI-H460 lung data for `Nc1c(C(=O)Nc2ccccc2)sc2nc3c(cc12)CCCCC3` : TGI came out at > 100 µM

Hey, NCI-H460 lung data for `O=C(Cc1ccccc1F)NC1=C(Cl)C(=O)c2ccccc2C1=O` : TGI came out at 21.7 µM

Hey, NCI-H460 lung data for `C[C@H]1/C(=C/C(=O)OCCN(C)C)CC[C@H]2[C@H]1C(=O)C[C@H]1C(C)(C)[C@@H](O)CC[C@]21C` : TGI came out at > 100 µM

Hey, NCI-H460 lung data for `CSCC[C@@H]1C(=O)N(C)[C@H](C(C)(C)C)N1C(=O)c1ccccc1` : TGI came out at > 100 µM

Hey, NCI-H460 lung data for `O=C(CCl)NCCNc1nccc(Nc2ccc(S(=O)(=O)Nc3ccccn3)cc2)n1` : TGI came out at 7.22 µM

Hey, NCI-H460 lung data for CN1CN(C2OC(CO)C(O)C2O)c2nc(N)[nH]c(=O)c21 (stereo unspecified) : TGI came out at > 100 µM

Hey, NCI-H460 lung data for `COc1cc(OC)c(C(=O)c2cccs2)cc1N` : TGI came out at > 100 µM

Hey, NCI-H460 lung data for Cc1ccc(-c2nc3ccccc3c(=O)n2NCC2(O)OCC(O)C(O)C2O)cc1 (stereo unspecified) : TGI came out at > 100 µM

Hey, NCI-H460 lung data for `CO[C@@H]1C=C[C@@]23c4cc5c(cc4CN(C[C@@H]2O)[C@H]3C1)OCO5` : TGI came out at > 100 µM

Hey, NCI-H460 lung data for `CCCc1n(Cc2ccc3ccccc3c2)cc[n+]1Cc1ccc2ccccc2c1` : TGI came out at 3.01 µM

Hey, NCI-H460 lung data for `CCC[CH2][Sn]([CH2]CCC)([O]c1cccc2cccnc12)[O]c1cccc2cccnc12` : TGI came out at 1.17 µM

Hey, NCI-H460 lung data for `NCCSc1cc(O)c2c(c1N)C(=O)c1ccccc1C2=O` : TGI came out at > 100 µM

Hey, NCI-H460 lung data for `CCOP(=O)(OCC)/C(C#N)=C/c1cccn1C(C)C` : TGI came out at > 100 µM
